assay: Autosampler stability of ready for injection samples; type: physicochemical, human; settings: validation standard 2xLLOV
Recorded Autosampler (72h, 4°C) Accuracy [%], one value per entry.
MEASUREMENT_NAME: Autosampler (72h, 4°C) Accuracy [%]

MOLECULE	REPORTED_MEASUREMENT
CC1(C)CCC(CN2CCN(c3ccc(C(=O)NS(=O)(=O)c4ccc(NCC5CCOCC5)c([N+](=O)[O-])c4)c(Oc4cnc5[nH]ccc5c4)c3)CC2)=C(c2ccc(Cl)cc2)C1	104.7%
CCN1CCN(Cc2ccc(Nc3ncc(F)c(-c4cc(F)c5nc(C)n(C(C)C)c5c4)n3)nc2)CC1	95.3%
CNC(=O)c1ccc(N2C(=S)N(c3ccc(C#N)c(C(F)(F)F)c3)C(=O)C2(C)C)cc1F [Enzalutamide]	102.2%
O=C1CN2Cc3c(ccc(Cl)c3Cl)N=C2N1 [Anagrelide]	106.1%
Nc1cccc2c1CN(C1CCC(=O)NC1=O)C2=O (stereo not shown) [Lenalidomide]	109.8%
Cn1cnc2c(F)c(Nc3ccc(Br)cc3F)c(C(=O)NOCCO)cc21	101.6%
COc1cc2ncnc(Nc3ccc(F)c(Cl)c3)c2cc1NC(=O)/C=C/CN1CCCCC1	99.5%
CC[C@H](Nc1ncnc2[nH]cnc12)c1nc2cccc(F)c2c(=O)n1-c1ccccc1	98.6%
CCc1cc2c(cc1N1CCC(N3CCOCC3)CC1)C(C)(C)c1[nH]c3cc(C#N)ccc3c1C2=O	102.6%
COC(=O)N[C@@H](C)CNc1nccc(-c2cn(C(C)C)nc2-c2cc(Cl)cc(NS(C)(=O)=O)c2F)n1	102.6%
C[C@@H](Oc1cc(-c2cnn(C3CCNCC3)c2)cnc1N)c1c(Cl)ccc(F)c1Cl	103.5%
C=CC(=O)N1CCC[C@@H](n2nc(-c3ccc(Oc4ccccc4)cc3)c3c(N)ncnc32)C1	100.0%
CC(=O)c1c(C)c2cnc(Nc3ccc(N4CCNCC4)cn3)nc2n(C2CCCC2)c1=O	100.1%

* * *

As shown below, each of these compounds has a reported Long-term stability, 1 month, -20°C Accuracy [%] value.
test: Long-term stability in spiked pooled human plasma; details: validation standard ULOV
MEASUREMENT_NAME: Long-term stability, 1 month, -20°C Accuracy [%] (%)

COMPOUND	READOUT_UNIT	REPORTED_MEASUREMENT
Cc1nc(Nc2ncc(C(=O)Nc3c(C)cccc3Cl)s2)cc(N2CCN(CCO)CC2)n1 [Dasatinib]	%	97.7
CCc1cc2c(cc1N1CCC(N3CCOCC3)CC1)C(C)(C)c1[nH]c3cc(C#N)ccc3c1C2=O [Alectinib]	%	85.2
C[C@H]1Oc2cc(cnc2N)-c2c(nn(C)c2C#N)CN(C)C(=O)c2ccc(F)cc21 [Lorlatinib]	%	90.6
COc1cc2nccc(Oc3ccc(NC(=O)Nc4cc(C)on4)c(Cl)c3)c2cc1OC [Tivozanib]	%	97.0
CNC(=O)c1ccccc1Sc1ccc2c(/C=C/c3ccccn3)n[nH]c2c1 [Axitinib]	%	92.0
COc1cc(N2CCC(N3CCN(C)CC3)CC2)ccc1Nc1ncc(Cl)c(Nc2ccccc2P(C)(C)=O)n1 [Brigatinib]	%	100.4
O=C1CCC(N2C(=O)c3ccccc3C2=O)C(=O)N1 (stereo not drawn) [Thalidomide]	%	68.6
C[C@@H](Oc1cc(-c2cnn(C3CCNCC3)c2)cnc1N)c1c(Cl)ccc(F)c1Cl [Crizotinib]	%	84.4
CS(=O)(=O)CCNCc1ccc(-c2ccc3ncnc(Nc4ccc(OCc5cccc(F)c5)c(Cl)c4)c3c2)o1 [Lapatinib]	%	96.6
Cc1c(C(=O)Nc2ccc(N3C[C@@H](C)O[C@@H](C)C3)nc2)cccc1-c1ccc(OC(F)(F)F)cc1 [Sonidegib]	%	106.5
Cc1[nH]c2ccccc2c1CCNCc1ccc(/C=C/C(=O)NO)cc1 [Panobinostat]	%	89.6
CCCS(=O)(=O)Nc1ccc(F)c(C(=O)c2c[nH]c3ncc(-c4ccc(Cl)cc4)cc23)c1F [Vemurafenib]	%	104.7
